Each entry below carries its reported AC26.
tested on: D54 ERlucT glycosylation luciferase reporter, luminescence, 24 h; test: N-linked glycosylation inhibitors, luciferase reporter, dose response, D54 ERlucT cells, luminescence, cherry-picks (AID 624491);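 also: signal gain reflects blocked N-linked glycosylation of a luciferase reporter; actives raise luciferase signal so AC26 marks activators of the reporter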

Some molecules with recorded AC26:
{"molecule": "O=c1[nH]c(-c2ccccc2)nc2sc(-c3ccccc3)cc12", "AC26": "2320 nM"}
{"molecule": "COc1ccc(/C=N\\NC(=O)c2sccc2C)cc1Cn1nc(C)cc1C", "AC26": "507 nM"}
{"molecule": "O=c1cc(-c2ccccc2)nc2cc(-c3ccc(F)cc3)[nH]n12", "AC26": "4270 nM"}
{"molecule": "O=C(Cc1ccc(-c2ccccc2)cc1)NCc1ccccc1", "AC26": "27.8 nM"}
{"molecule": "CC(=O)c1cccc(-c2ccnc3c2CC(C(=O)NCc2ccc(F)c(F)c2)O3)c1 (stereo unspecified)", "AC26": "1370 nM"}

IN: Read off the recorded AC26 for C=CCNc1nc(Nc2ccc(OC)c(OC)c2)c2sc(-c3ccccc3)cc2n1
OUT: 513 nM

IN: Read off the recorded AC26 for COc1ccc(-n2c(NNC(C)=O)nc3sc4c(c3c2=O)CCCC4)cc1
OUT: 6720 nM
